// values below are reported IC50
# System: T1, FGFR2-IIIb (fibroblast growth factor receptor 2 IIIb splice form) (human, UniProt P21802 22-377)
# T1 construct: also called FGFR2b; KGFR
# T1 chain: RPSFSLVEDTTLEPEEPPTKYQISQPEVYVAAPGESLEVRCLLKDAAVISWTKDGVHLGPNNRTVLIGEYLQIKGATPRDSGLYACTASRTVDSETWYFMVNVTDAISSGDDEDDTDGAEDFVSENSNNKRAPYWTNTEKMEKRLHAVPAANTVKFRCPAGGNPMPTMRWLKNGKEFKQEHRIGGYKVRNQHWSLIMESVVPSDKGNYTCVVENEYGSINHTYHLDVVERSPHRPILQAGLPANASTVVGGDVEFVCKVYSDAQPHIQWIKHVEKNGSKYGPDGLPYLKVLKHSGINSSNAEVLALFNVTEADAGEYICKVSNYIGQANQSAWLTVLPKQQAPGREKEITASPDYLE
# Protocol text: blocking ELISA (potency), forced oxidation study; blocked ligand not named

{"Binder": "anti-FGFR2-IIIb antibody incubated with 0.1% hydrogen peroxide overnight at room temperature (force oxidized) (antibody, human IgG1, kappa, V domains shown, Same antibody as m1 after peroxide treatment; also called +0.1% H2O2; 0.1% H2O2) VH: QVQLVQSGAEVKKPGSSVKVSCKASGYIFTTYNVHWVRQAPGQGLEWIGSIYPDNGDTSYNQNFKGRATITADKSTSTAYMELSSLRSEDTAVYYCARGDFAYWGQGTLVTVSS VL: DIQMTQSPSSLSASVGDRVTITCKASQGVSNDVAWYQQKPGKAPKLLIYSASYRYTGVPSRFSGSGSGTDFTFTISSLQPEDIATYYCQQHSTTPYTFGQGTKLEIKR", "IC50 [µg/mL]": 0.0259}
{"Binder": "anti-FGFR2-IIIb antibody incubated with 0.01% hydrogen peroxide overnight at room temperature (force oxidized) (antibody, human IgG1, kappa, V domains shown, Same antibody as m1 after peroxide treatment; also called +0.01% H2O2; 0.01% H2O2) VH: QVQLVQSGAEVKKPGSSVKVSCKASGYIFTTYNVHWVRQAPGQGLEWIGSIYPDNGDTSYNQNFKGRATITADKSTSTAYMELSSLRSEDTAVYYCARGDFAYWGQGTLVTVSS VL: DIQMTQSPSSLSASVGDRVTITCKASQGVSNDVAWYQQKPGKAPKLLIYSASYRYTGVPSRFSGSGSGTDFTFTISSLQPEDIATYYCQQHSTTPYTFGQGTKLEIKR", "IC50 [µg/mL]": 0.0208}
{"Binder": "anti-FGFR2-IIIb antibody incubated with 1.0% hydrogen peroxide overnight at room temperature (force oxidized) (antibody, human IgG1, kappa, V domains shown, Same antibody as m1 after peroxide treatment; also called +1.0% H2O2; 1.0% H2O2) VH: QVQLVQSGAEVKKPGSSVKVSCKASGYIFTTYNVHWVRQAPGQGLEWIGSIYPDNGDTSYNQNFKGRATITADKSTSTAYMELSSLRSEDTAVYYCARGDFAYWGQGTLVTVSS VL: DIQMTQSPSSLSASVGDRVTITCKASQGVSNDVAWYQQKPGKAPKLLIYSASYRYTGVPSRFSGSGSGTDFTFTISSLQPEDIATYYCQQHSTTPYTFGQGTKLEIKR", "IC50 [µg/mL]": 0.0257}
{"Binder": "anti-FGFR2-IIIb antibody (afucosylated, humanized IgG1 monoclonal antibody), control sample incubated without hydrogen peroxide (antibody, V domains shown, also called αFGFR2b; Sample 1) VH: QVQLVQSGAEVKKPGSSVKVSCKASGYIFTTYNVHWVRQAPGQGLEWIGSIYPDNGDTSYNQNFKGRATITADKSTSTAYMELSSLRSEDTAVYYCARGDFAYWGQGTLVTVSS VL: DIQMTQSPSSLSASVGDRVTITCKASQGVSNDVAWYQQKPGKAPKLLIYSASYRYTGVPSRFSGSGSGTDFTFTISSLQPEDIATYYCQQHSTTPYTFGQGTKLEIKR", "IC50 [µg/mL]": 0.0272}
